Test system: Calf thymus DNA
assay info: Binding affinity to calf thymus DNA assessed as change in melting temperature at 2 uM by thermal denaturation assay
Type: nucleic-acid assay
run parameters: Bos taurus
measured property: ΔTm (°C)

These solved cases illustrate the format of a correct answer.
CN(CCNC(=O)CCCCCC(=O)NCCN(C)CCn1nc2c3c(cccc31)C(=O)c1c(Cl)cccc1-2)CCn1nc2c3c(cccc31)C(=O)c1c(Cl)cccc1-2 : 4.8
CN(CCNC(=O)CC(=O)NCCN(C)CCn1nc2c3c(cccc31)C(=O)c1c(Cl)cccc1-2)CCn1nc2c3c(cccc31)C(=O)c1c(Cl)cccc1-2 : 9.6
CN(CCNC(=O)CCCCC(=O)NCCN(C)CCn1nc2c3c(cccc31)C(=O)c1c(Cl)cccc1-2)CCn1nc2c3c(cccc31)C(=O)c1c(Cl)cccc1-2 : 6.8
CN(CCO)CCn1nc2c3c(cccc31)C(=O)c1c(Cl)cccc1-2 : 5.4
COc1cccc2c1C(=O)c1c(O)c3c(c(O)c1C2=O)C[C@@](O)(C(=O)CO)C[C@@H]3O[C@H]1C[C@H](N)[C@H](O)[C@H](C)O1 : 17.8

a = CN(CCNC(=O)CCC(=O)NCCN(C)CCn1nc2c3c(cccc31)C(=O)c1c(Cl)cccc1-2)CCn1nc2c3c(cccc31)C(=O)c1c(Cl)cccc1-2
b = CN(CCN)CCn1nc2c3c(cccc31)C(=O)c1c(Cl)cccc1-2
Which record shows the lower ΔTm: the first, a , or the second, b ? Use the label to indicate which entry you chose.
b

A = CN(CCN=[N+]=[N-])CCn1nc2c3c(cccc31)C(=O)c1c(Cl)cccc1-2
B = CN(CCNC(=O)CCCC(=O)NCCN(C)CCn1nc2c3c(cccc31)C(=O)c1c(Cl)cccc1-2)CCn1nc2c3c(cccc31)C(=O)c1c(Cl)cccc1-2
Return label of the item with the larger ΔTm. Candidates: A , B . Write down the label attached to your selection.
B
